tested on: UMUC3; test: Cytotoxicity against human UM-UC-3 cells after 72 hrs by MTT assay; type: functional, cell-based; settings: UMUC3, 72 h
Field: IC50. Provide a value for each of the compounds that follow.

Would you please look over these solved cases?
compound: C#CC(=O)N(Cc1ccc2c(c1)OCO2)C(C(=O)NCc1ccccc1)c1ccccc1F (stereo not drawn)
obsValue: > 20 µM
//
compound: C#CC(=O)N(c1cc(OC)cc(OC)c1)C(C(=O)NC1CCCCC1)c1ccc(OC)cc1 (stereo not drawn)
obsValue: > 20 µM
//
compound: C#CC(=O)N(c1cccc(C(F)(F)F)c1)C(C(=O)NCc1ccccc1)c1cccs1 (stereo not drawn)
obsValue: > 20 µM
//
compound: C#CC(=O)N(c1cccc(C(F)(F)F)c1)C(C(=O)NC1CCCCC1)c1cccs1 (stereo not drawn)
obsValue: > 20 µM
//
compound: C#CC(=O)N(c1ccccc1)C(C(=O)NC1CCCCC1)c1cccs1 (stereo not drawn)
obsValue: > 20 µM
//
compound: C#CC(=O)N(c1ccc(-n2cnnn2)c(C)c1)C(C(=O)NC1CCCC1)c1ccccc1 (stereo not drawn)
obsValue: 7.8 µM

List the reported IC50 of each compound below.
1. C#CC(=O)N(c1cc(OC)cc(OC)c1)C(C(=O)NC1CCCC1)c1ccc(OC)cc1 (stereo not drawn)
2. C#CC(=O)N(c1ccc(OC)cc1OC)C(C(=O)NC1CCCC1)c1cccs1 (stereo not drawn)
3. C#CC(=O)N(c1cc(OC)ccc1OC)C(C(=O)NC1CCCC1)c1cccs1 (stereo not drawn)
4. C#CC(=O)N(Cc1ccco1)C(C(=O)NC1CCCC1)c1ccccc1F (stereo not drawn)

OUTPUT:
> 20 µM
> 20 µM
5.7 µM
> 20 µM

List the reported IC50 of each compound below.
1. C#CC(=O)N(c1cccc(C(F)(F)F)c1)C(C(=O)NC1CCCC1)c1ccc(F)cc1 (stereo not drawn)
2. C#CC(=O)N(c1ccc2ccccc2c1)C(C(=O)NC1CCCC1)c1ccccc1 (stereo not drawn)
3. C#CC(=O)N(c1cccc(C(F)(F)F)c1)C(C(=O)NC1CCCC1)c1cccc(OC)c1 (stereo not drawn)
4. C#CC(=O)N(c1ccc(OC)c(OC)c1)C(C(=O)NC1CCCC1)c1cccs1 (stereo not drawn)
5. C#CC(=O)N(c1ccccc1F)C(C(=O)NC1CCCCC1)c1ccccc1F (stereo not drawn)
6. C#CC(=O)N(c1cccc(OC)c1)C(C(=O)NC1CCCC1)c1cccs1 (stereo not drawn)
7. C#CC(=O)N(c1ccc(-n2cnnn2)c(C)c1)C(C(=O)NC1CCCC1)c1ccccc1F (stereo not drawn)

OUTPUT:
["8 µM", "> 20 µM", "> 20 µM", "> 20 µM", "> 20 µM", "6.9 µM", "6.3 µM"]

INPUT: Fill blank: measured IC50 of the compound C#CC(=O)N(c1ccc2c(c1)OCCO2)C(C(=O)NC1CCCC1)c1ccccc1 (stereo not drawn) is ____.
OUTPUT: > 20 µM

* * *

assay: Elimination rate constant in mouse at 24 mg/kg, ip; assay type: ADME, organism-based; design: dose 24 mg/kg, route intraperitoneal; settings: in vivo
quantityKind: k el
Report the figure along with its unit, number first.

INPUT: Fill blank: measured k el of the molecule C#CC(=O)N(c1ccc(-n2cnnn2)c(C)c1)C(C(=O)NC1CCCC1)c1ccccc1F (stereo unspecified) is ____.
OUTPUT: 5.72e-05 s⁻¹

* * *

assay: Octanol-water distribution coefficient, log P of the compound; format: physicochemical
quantityKind: logP
Numbers only.

Would you please look over these solved cases?
molecule: C#CC(=O)N(c1cccc(C(F)(F)F)c1)C(C(=O)NC1CCCCC1)c1cccs1 (stereo not drawn)
logP: 3.88
//
molecule: C#CC(=O)N(c1ccc(-n2cnnn2)c(C)c1)C(C(=O)NC1CCCC1)c1ccccc1 (stereo not drawn)
logP: 3.54

INPUT: Fill blank: measured logP of the molecule C#CC(=O)N(c1ccc(-n2cnnn2)c(C)c1)C(C(=O)NC1CCCC1)c1ccccc1F (stereo not drawn) is ____.
OUTPUT: 3.91
